The values you see were collected from ChEMBL document CHEMBL1127054.

# test-target: Monoamine transporters; serotonin & dopamine (Rattus norvegicus) (UniProt P31652+P23977)
# Sequence (P23977 whole entry, looked up): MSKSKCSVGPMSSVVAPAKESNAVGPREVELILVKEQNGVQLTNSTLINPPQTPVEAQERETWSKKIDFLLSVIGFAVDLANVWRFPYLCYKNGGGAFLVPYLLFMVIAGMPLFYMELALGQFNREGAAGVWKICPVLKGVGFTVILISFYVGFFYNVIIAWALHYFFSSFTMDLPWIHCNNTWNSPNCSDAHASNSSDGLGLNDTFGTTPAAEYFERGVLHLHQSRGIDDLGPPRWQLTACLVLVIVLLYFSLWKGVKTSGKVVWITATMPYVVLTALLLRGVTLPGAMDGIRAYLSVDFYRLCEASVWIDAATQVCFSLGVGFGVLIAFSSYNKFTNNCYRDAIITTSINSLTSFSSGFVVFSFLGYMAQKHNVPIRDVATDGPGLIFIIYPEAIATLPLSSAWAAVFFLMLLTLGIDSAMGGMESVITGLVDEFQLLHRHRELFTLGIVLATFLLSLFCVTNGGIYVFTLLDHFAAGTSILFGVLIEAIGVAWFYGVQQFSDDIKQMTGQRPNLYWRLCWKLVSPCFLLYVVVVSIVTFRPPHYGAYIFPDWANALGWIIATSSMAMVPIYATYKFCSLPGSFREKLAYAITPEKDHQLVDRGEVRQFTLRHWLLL
# Sequence (P31652 whole entry, looked up): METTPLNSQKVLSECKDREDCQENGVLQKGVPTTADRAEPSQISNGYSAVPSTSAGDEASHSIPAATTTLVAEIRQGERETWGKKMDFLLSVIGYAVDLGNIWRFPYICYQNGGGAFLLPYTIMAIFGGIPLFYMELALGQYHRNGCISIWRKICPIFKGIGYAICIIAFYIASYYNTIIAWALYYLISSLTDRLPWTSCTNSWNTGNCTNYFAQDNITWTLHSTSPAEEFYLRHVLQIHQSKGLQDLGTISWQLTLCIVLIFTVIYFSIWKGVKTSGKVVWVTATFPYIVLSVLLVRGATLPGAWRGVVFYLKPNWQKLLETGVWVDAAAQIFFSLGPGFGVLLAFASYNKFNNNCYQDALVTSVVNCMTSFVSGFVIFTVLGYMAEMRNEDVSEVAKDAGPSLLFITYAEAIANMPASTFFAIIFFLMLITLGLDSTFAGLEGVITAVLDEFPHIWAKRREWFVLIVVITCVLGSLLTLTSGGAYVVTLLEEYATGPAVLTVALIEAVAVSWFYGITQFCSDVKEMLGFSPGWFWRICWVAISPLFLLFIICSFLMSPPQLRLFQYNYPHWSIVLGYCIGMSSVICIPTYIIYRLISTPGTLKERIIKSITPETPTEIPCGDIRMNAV
# assay-notes: Ratio between serotonin transporter and Dopamine transporter
# Type: protein assay
Recorded Ratio for the following compounds
Lab note: jot the number down without any unit.

- compound: "Cc1noc(C2C3CC[C@H](C[C@@H]2c2ccccc2)N3C)n1 (stereo in doubt; 7)"
  Ratio: 144
- compound: "COc1ccc(-c2noc(C3C4CC[C@H](C[C@@H]3c3ccc(Cl)cc3)N4C)n2)cc1 (stereo not given in full)"
  Ratio: 186

Problem: Please report Ratio for the following compound: Cc1ccc([C@H]2C[C@H]3CCC(C2c2nc(-c4ccccc4)no2)N3C)cc1 (stereo not given in full)
Result: 459

Problem: Please report Ratio for the following compound: CN1C2CC[C@@H]1C[C@H](c1ccc(Cl)cc1)C2c1nc(-c2ccc(Cl)cc2)no1 (stereo not given in full)
Result: 100

Problem: Please report Ratio for the following compound: CN1C2CC[C@@H]1C[C@H](c1ccc(Cl)cc1)C2c1nc(-c2ccc(Br)cc2)no1 (stereo not given in full)
Result: 31

Problem: Please report Ratio for the following compound: CN1C2CC[C@@H]1C[C@H](c1ccc(Cl)cc1)C2c1nc(-c2ccccc2)no1 (stereo not given in full)
Result: 120

Problem: Please report Ratio for the following compound: Cc1noc(C2C3CC[C@H](C[C@@H]2c2ccccc2)N3C)n1 (stereo in doubt; 6)
Result: 32

Problem: Please report Ratio for the following compound: Cc1noc(C2C3CC[C@H](C[C@@H]2c2ccccc2)N3C)n1 (stereo in doubt; 8)
Result: 243

Problem: Please report Ratio for the following compound: Cc1noc(C2C3CC[C@H](C[C@@H]2c2ccccc2)N3C)n1 (stereo in doubt; 5a)
Result: 38

Problem: Please report Ratio for the following compound: CC(C)c1noc(C2C3CC[C@H](C[C@@H]2c2ccc(Cl)cc2)N3C)n1 (stereo not given in full)
Result: 577
